target: GTPase HRas [G12V] (Homo sapiens, UniProt P01112, G12V); assay: In Vitro Ras-Raf Binding Inhibitory Activity Assay
Sequence (P01112 whole entry G12V, looked up): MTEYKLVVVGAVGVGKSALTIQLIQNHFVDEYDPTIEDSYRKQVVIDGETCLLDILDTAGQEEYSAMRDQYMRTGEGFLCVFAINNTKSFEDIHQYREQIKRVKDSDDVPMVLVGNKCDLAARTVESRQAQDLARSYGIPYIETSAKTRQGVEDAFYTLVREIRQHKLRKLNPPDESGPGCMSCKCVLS
pIC50: −log10 of the molar value.
Parameter pIC50: see the listing below.

| compound | pIC50 |
| --- | --- |
| COCC(O)CN1CCN(C(=O)c2ccc3nc(/C=C4/C(=O)c5ccccc5N4C(C)=O)ccc3c2)CC1 (configuration not stated) | 5.55 |
| CC(=O)N1/C(=C\c2nc(-c3cnn(C)c3)c3ccccc3n2)C(=O)c2ccccc21 | 6.22 |
| CC(=O)N1/C(=C\c2cc(-c3ncccn3)c3cc(C(=O)N4CCOCC4)ccc3n2)C(=O)c2ccccc21 | 5.82 |
| CC(=O)N1/C(=C/c2nc3ccc(C(=O)N4CC(C)OC(C)C4)cc3s2)C(=O)c2ccccc21 (configuration not stated) | 6.11 |
| CC(=O)N1/C(=C/c2cc(-c3ccnc4ccccc34)c3cc(C(=O)N4CCOCC4)ccc3n2)C(=O)c2ccccc21 | 5.96 |
| CCCCOc1cc(/C=C2/C(=O)c3ccccc3N2C(C)=O)nc2ccc(C(=O)N3CCOCC3)cc12 | 6.24 |
| CC(=O)N1C(=Cc2ccc3cc(OCCO)ccc3n2)C(=O)c2ccccc21 | 5.85 |

###

Molecular target: GTPase HRas [G12V] (Homo sapiens, UniProt P01112, G12V)
Assay: In Vitro Ras-Raf Binding Inhibitory Activity Assay
Experimental: The in vitro Ras-Raf binding inhibitory activity of the compound of the present invention was evaluated by an ELISA method described below. GST-c-Raf-1 RBD diluted with a Ras-Raf binding buffer (50 mM Tris-HCl pH7.4, 150 mM NaCl, 5 mM MgCl2, 1 mM EDTA, and 1% Triton-X100) was added to each well of a glutathione-coated 96-well plate (Thermo Fisher Scientific.), and was incubated at 30° C. for 1 hour, to immobilize Raf on the well. […]
pIC50: −log10 of the molar value.
Parameter pIC50: see the listing below.

| compound | pIC50 |
| --- | --- |
| CC(=O)NCc1cccc2c1C(=O)/C(=C/c1ccc3cc(C(=O)N4CCOCC4)ccc3n1)N2C(C)=O | 5.39 |
| CC(=O)N1C(=Cc2cc(CN3CCOCC3=O)c3ccccc3n2)C(=O)c2ccccc21 | 5.85 |
| CC(=O)N1C(=Cc2ccc(OCC(=O)N3CCOCC3)c(-c3ccccc3)c2)C(=O)c2ccccc21 | 4.89 |
| CC(=O)N1C(=Cc2cc(-c3cccnc3-c3ccccc3)c3cc(C(=O)N4CCOCC4)ccc3n2)C(=O)c2ccccc21 | 6.18 |
| CC(=O)N1/C(=C\c2cc(-c3cn(C)cn3)c3cc(C(=O)N4CCOCC4)ccc3n2)C(=O)c2ccccc21 | 6.10 |
| CC(=O)N1C(=Cc2cc(-c3ccccc3)c3cc(C(=O)N4CCOCC4)ccc3n2)C(=O)c2ccccc21 | 6.08 |
| CC(=O)N1C(=Cc2cc(-c3ccccc3-c3cnn(C)c3)c3cc(CNC4CCOCC4)ccc3n2)C(=O)c2ccccc21 | 5.70 |
| CC(=O)N1CCc2ccc(-c3cc(/C=C4/C(=O)c5ccccc5N4C(C)=O)nc4ccc(CNC5CCOCC5)cc34)cc2C1 | 6.22 |
| CC(=O)N1/C(=C\c2cc(-c3cccnc3)c3cc(C(=O)N4CCOCC4)ccc3n2)C(=O)c2ccccc21 | 6.24 |
| CC(=O)N1C(=Cc2ccc3cc(C(=O)N4CCOCC4)ccc3n2)C(=O)c2ccccc21 | 6.06 |
| CC(=O)N1/C(=C/c2nc3cc(C(=O)N4CCOCC4)ccc3s2)C(=O)c2ccccc21 | 5.46 |
| CC(=O)N1CCc2cc(-c3cc(/C=C4/C(=O)c5ccccc5N4C(C)=O)nc4ccc(CNC5CCOCC5)cc34)ccc2C1 | 6.40 |
| CC(=O)N1/C(=C\c2ccc3cc(C(=O)N4CC(C)OC(C)C4)ccc3n2)C(=O)c2ccccc21 (stereo not drawn) | 6.02 |

Hello, the source for this data is BindingDB's records for patent US20250091994, in case you need it.
